Target: human BACE1 (Homo sapiens)
Sequence (P56817 46-501): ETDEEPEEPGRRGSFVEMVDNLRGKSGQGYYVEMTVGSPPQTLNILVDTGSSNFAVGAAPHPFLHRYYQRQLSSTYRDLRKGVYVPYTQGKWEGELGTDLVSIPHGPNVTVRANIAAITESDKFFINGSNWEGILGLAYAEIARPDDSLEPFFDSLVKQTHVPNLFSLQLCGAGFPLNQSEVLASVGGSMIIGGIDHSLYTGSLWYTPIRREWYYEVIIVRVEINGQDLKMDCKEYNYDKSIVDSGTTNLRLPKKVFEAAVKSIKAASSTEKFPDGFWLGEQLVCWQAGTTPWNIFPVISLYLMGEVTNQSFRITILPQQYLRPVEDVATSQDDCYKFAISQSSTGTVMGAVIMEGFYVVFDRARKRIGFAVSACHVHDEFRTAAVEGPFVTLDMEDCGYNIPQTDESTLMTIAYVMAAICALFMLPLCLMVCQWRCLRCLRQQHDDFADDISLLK
Assay: Fluorescent kinetic assay, inhibition of BACE1 (WABC-6 peptide substrate);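 note: fluorescence monitored at 320 nm excitation and 420 nm emission every 40 s over 30 min, with the substrate cleavage rate taken from the linear slope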
Format: biochemical
Conditions: 10 nM enzyme, 25 μM substrate WABC-6, pH 4.5, room temperature; read-out: IC50 (μM) BACE1
Below, each entry is listed with its recorded IC50.

- Cc1cc(C2(c3cccc(-c4cncnc4)c3)N=C(N)N(C)C2=O)ccc1OC(C)C (stereo not shown): 0.01 to 0.1 µM
- CCOc1ccc(C2(c3cccc(-c4cncnc4)c3)N=C(N)N(C)C2=O)cc1OCC (stereo not shown): 0.01 to 0.1 µM
- CN1C(=O)[C@@](c2ccc(OCCF)cc2)(c2ccc(F)c(-c3cncnc3)c2)N=C1N [Example 139B]: 0.11 to 1 µM

[Q] Which measured IC50 value corresponds to CN1C(=O)C(c2ccc(OC(F)F)cc2)(c2cccc(-c3ccc(F)nc3)c2)N=C1N (stereo not shown) ?
[A] 0.01 to 0.1 µM

[Q] And CCOc1ccc(C2(c3cccc(-c4cccnc4OC)c3)N=C(N)N(C)C2=O)cc1OCC (stereo not shown) ?
[A] 0.11 to 1 µM

[Q] And CN1C(=O)[C@](c2ccc(OC(F)F)cc2)(c2cccc(-c3cc(F)cnc3F)c2)N=C1N [Example 137A] ?
[A] > 1 µM

[Q] And CCOc1ccc(C2(c3cccc(-c4ccc(F)nc4)c3)N=C(N)N(C)C2=O)cc1OCC (stereo not shown) ?
[A] 0.01 to 0.1 µM

[Q] And CN1C(=O)C(c2ccc(SC(F)(F)F)cc2)(c2ccc(F)c(-c3cncnc3)c2)N=C1N (stereo not shown) ?
[A] 0.11 to 1 µM

[Q] And CCOc1ccc(C2(c3ccc(F)c(-c4cccnc4)c3)N=C(N)N(C)C2=O)cc1OCC (stereo not shown) [Example 99] ?
[A] 0.01 to 0.1 µM

[Q] And Cc1cc(C2(c3cccc(-c4cncnc4)c3)N=C(N)N(C)C2=O)ccc1OCC(C)C (stereo not shown) ?
[A] 0.01 to 0.1 µM

[Q] And CN1C(=O)C(c2ccc(OCCF)cc2)(c2cccc(-c3ccc(F)nc3)c2)N=C1N (stereo not shown) ?
[A] 0.11 to 1 µM
